Where do the numbers come from? From ChEMBL document CHEMBL6177946.

- Test system: RAW264.7
- experiment: Anti-inflammatory activity against LPS-induced mouse RAW264.7 cells assessed as inhibition of NO production
- Format: functional, cell-based
value-kind: IC50

> print(dat)
                                smiles.code  experimental.value
1  C/C=C1/C2=CCCN3C(=O)O[C@H]([C@H]1OC(=O)CCCC)[C@H]23              8.8 µM
